These measurements were taken from BigSolDB 2.1.

experimental setup: in methanol, 283 K
quantity measured: solubility (mole fraction)
Answers are plain numbers.

Read off the recorded solubility (mole fraction) for `CC[C@H](C)C(=O)O[C@H]1C[C@H](O)C=C2C=C[C@H](C)[C@H](CC[C@@H](O)C[C@@H](O)CC(=O)[O-])[C@H]21.[Na+]`
0.0245

====

experimental setup: in n-butanol, 323 K
quantity measured: solubility (mole fraction)
Numbers only.

Read off the recorded solubility (mole fraction) for `CC[C@H](C)C(=O)O[C@H]1C[C@H](O)C=C2C=C[C@H](C)[C@H](CC[C@@H](O)C[C@@H](O)CC(=O)[O-])[C@H]21.[Na+]`
0.00408

====

experimental setup: in isopropanol, 278 K
quantity measured: solubility (mole fraction)
One number for each entry.

Read off the recorded solubility (mole fraction) for `CC[C@H](C)C(=O)O[C@H]1C[C@H](O)C=C2C=C[C@H](C)[C@H](CC[C@@H](O)C[C@@H](O)CC(=O)[O-])[C@H]21.[Na+]`
0.000605

====

experimental setup: in water, 288 K
quantity measured: solubility (mole fraction)
One number for each entry.

Read off the recorded solubility (mole fraction) for `CC[C@H](C)C(=O)O[C@H]1C[C@H](O)C=C2C=C[C@H](C)[C@H](CC[C@@H](O)C[C@@H](O)CC(=O)[O-])[C@H]21.[Na+]`
0.0162

====

experimental setup: in n-butanol, 278.1 K
quantity measured: solubility (mole fraction)

Read off the recorded solubility (mole fraction) for `CC[C@H](C)C(=O)O[C@H]1C[C@H](O)C=C2C=C[C@H](C)[C@H](CC[C@@H](O)C[C@@H](O)CC(=O)[O-])[C@H]21.[Na+]`
0.00108

====

experimental setup: in n-butanol, 298 K
quantity measured: solubility (mole fraction)
Answers are plain numbers.

Read off the recorded solubility (mole fraction) for `CC[C@H](C)C(=O)O[C@H]1C[C@H](O)C=C2C=C[C@H](C)[C@H](CC[C@@H](O)C[C@@H](O)CC(=O)[O-])[C@H]21.[Na+]`
0.00159

====

experimental setup: in ethanol, 333 K
quantity measured: solubility (mole fraction)
Numbers only.

Read off the recorded solubility (mole fraction) for `CC[C@H](C)C(=O)O[C@H]1C[C@H](O)C=C2C=C[C@H](C)[C@H](CC[C@@H](O)C[C@@H](O)CC(=O)[O-])[C@H]21.[Na+]`
0.00942

====

experimental setup: in water, 328 K
quantity measured: solubility (mole fraction)

Read off the recorded solubility (mole fraction) for `CC[C@H](C)C(=O)O[C@H]1C[C@H](O)C=C2C=C[C@H](C)[C@H](CC[C@@H](O)C[C@@H](O)CC(=O)[O-])[C@H]21.[Na+]`
0.0723

====

experimental setup: in methanol, 302.9 K
quantity measured: solubility (mole fraction)

Read off the recorded solubility (mole fraction) for `CC[C@H](C)C(=O)O[C@H]1C[C@H](O)C=C2C=C[C@H](C)[C@H](CC[C@@H](O)C[C@@H](O)CC(=O)[O-])[C@H]21.[Na+]`
0.0373

====

experimental setup: in n-propanol, 293 K
quantity measured: solubility (mole fraction)
One number for each entry.

Read off the recorded solubility (mole fraction) for `CC[C@H](C)C(=O)O[C@H]1C[C@H](O)C=C2C=C[C@H](C)[C@H](CC[C@@H](O)C[C@@H](O)CC(=O)[O-])[C@H]21.[Na+]`
0.00227

====

experimental setup: in isopropanol, 322.9 K
quantity measured: solubility (mole fraction)
One number for each entry.

Read off the recorded solubility (mole fraction) for `CC[C@H](C)C(=O)O[C@H]1C[C@H](O)C=C2C=C[C@H](C)[C@H](CC[C@@H](O)C[C@@H](O)CC(=O)[O-])[C@H]21.[Na+]`
0.00164

====

experimental setup: in n-propanol, 318 K
quantity measured: solubility (mole fraction)

Read off the recorded solubility (mole fraction) for `CC[C@H](C)C(=O)O[C@H]1C[C@H](O)C=C2C=C[C@H](C)[C@H](CC[C@@H](O)C[C@@H](O)CC(=O)[O-])[C@H]21.[Na+]`
0.0062

====

experimental setup: in n-propanol, 333 K
quantity measured: solubility (mole fraction)
Answers are plain numbers.

Read off the recorded solubility (mole fraction) for `CC[C@H](C)C(=O)O[C@H]1C[C@H](O)C=C2C=C[C@H](C)[C@H](CC[C@@H](O)C[C@@H](O)CC(=O)[O-])[C@H]21.[Na+]`
0.0158

====

experimental setup: in n-butanol, 308 K
quantity measured: solubility (mole fraction)

Read off the recorded solubility (mole fraction) for `CC[C@H](C)C(=O)O[C@H]1C[C@H](O)C=C2C=C[C@H](C)[C@H](CC[C@@H](O)C[C@@H](O)CC(=O)[O-])[C@H]21.[Na+]`
0.00223

====

experimental setup: in methanol, 313 K
quantity measured: solubility (mole fraction)
Give bare numbers.

Read off the recorded solubility (mole fraction) for `CC[C@H](C)C(=O)O[C@H]1C[C@H](O)C=C2C=C[C@H](C)[C@H](CC[C@@H](O)C[C@@H](O)CC(=O)[O-])[C@H]21.[Na+]`
0.0492

====

experimental setup: in ethanol, 318 K
quantity measured: solubility (mole fraction)
Numbers only.

Read off the recorded solubility (mole fraction) for `CC[C@H](C)C(=O)O[C@H]1C[C@H](O)C=C2C=C[C@H](C)[C@H](CC[C@@H](O)C[C@@H](O)CC(=O)[O-])[C@H]21.[Na+]`
0.00569

====

experimental setup: in n-butanol, 328 K
quantity measured: solubility (mole fraction)

Read off the recorded solubility (mole fraction) for `CC[C@H](C)C(=O)O[C@H]1C[C@H](O)C=C2C=C[C@H](C)[C@H](CC[C@@H](O)C[C@@H](O)CC(=O)[O-])[C@H]21.[Na+]`
0.00493

====

experimental setup: in methanol, 297.8 K
quantity measured: solubility (mole fraction)
Numbers only.

Read off the recorded solubility (mole fraction) for `CC[C@H](C)C(=O)O[C@H]1C[C@H](O)C=C2C=C[C@H](C)[C@H](CC[C@@H](O)C[C@@H](O)CC(=O)[O-])[C@H]21.[Na+]`
0.0326

====

experimental setup: in methanol, 308 K
quantity measured: solubility (mole fraction)
Give bare numbers.

Read off the recorded solubility (mole fraction) for `CC[C@H](C)C(=O)O[C@H]1C[C@H](O)C=C2C=C[C@H](C)[C@H](CC[C@@H](O)C[C@@H](O)CC(=O)[O-])[C@H]21.[Na+]`
0.0418

====

experimental setup: in water, 313 K
quantity measured: solubility (mole fraction)
Give bare numbers.

Read off the recorded solubility (mole fraction) for `CC[C@H](C)C(=O)O[C@H]1C[C@H](O)C=C2C=C[C@H](C)[C@H](CC[C@@H](O)C[C@@H](O)CC(=O)[O-])[C@H]21.[Na+]`
0.0477

====

experimental setup: in water, 333 K
quantity measured: solubility (mole fraction)
Answers are plain numbers.

Read off the recorded solubility (mole fraction) for `CC[C@H](C)C(=O)O[C@H]1C[C@H](O)C=C2C=C[C@H](C)[C@H](CC[C@@H](O)C[C@@H](O)CC(=O)[O-])[C@H]21.[Na+]`
0.0841

====

experimental setup: in isopropanol, 308 K
quantity measured: solubility (mole fraction)
Give bare numbers.

Read off the recorded solubility (mole fraction) for `CC[C@H](C)C(=O)O[C@H]1C[C@H](O)C=C2C=C[C@H](C)[C@H](CC[C@@H](O)C[C@@H](O)CC(=O)[O-])[C@H]21.[Na+]`
0.0011

====

experimental setup: in n-butanol, 288 K
quantity measured: solubility (mole fraction)
Answers are plain numbers.

Read off the recorded solubility (mole fraction) for `CC[C@H](C)C(=O)O[C@H]1C[C@H](O)C=C2C=C[C@H](C)[C@H](CC[C@@H](O)C[C@@H](O)CC(=O)[O-])[C@H]21.[Na+]`
0.00127

====

experimental setup: in isopropanol, 318 K
quantity measured: solubility (mole fraction)
Give bare numbers.

Read off the recorded solubility (mole fraction) for `CC[C@H](C)C(=O)O[C@H]1C[C@H](O)C=C2C=C[C@H](C)[C@H](CC[C@@H](O)C[C@@H](O)CC(=O)[O-])[C@H]21.[Na+]`
0.00141

====

experimental setup: in methanol, 293 K
quantity measured: solubility (mole fraction)
Give bare numbers.

Read off the recorded solubility (mole fraction) for `CC[C@H](C)C(=O)O[C@H]1C[C@H](O)C=C2C=C[C@H](C)[C@H](CC[C@@H](O)C[C@@H](O)CC(=O)[O-])[C@H]21.[Na+]`
0.0301

====

experimental setup: in ethanol, 328 K
quantity measured: solubility (mole fraction)
Numbers only.

Read off the recorded solubility (mole fraction) for `CC[C@H](C)C(=O)O[C@H]1C[C@H](O)C=C2C=C[C@H](C)[C@H](CC[C@@H](O)C[C@@H](O)CC(=O)[O-])[C@H]21.[Na+]`
0.00793

====

experimental setup: in n-propanol, 283 K
quantity measured: solubility (mole fraction)

Read off the recorded solubility (mole fraction) for `CC[C@H](C)C(=O)O[C@H]1C[C@H](O)C=C2C=C[C@H](C)[C@H](CC[C@@H](O)C[C@@H](O)CC(=O)[O-])[C@H]21.[Na+]`
0.00216
